Species: Homo sapiens
Assay: Selectivity ratio of EC50 for human oxytocin receptor to EC50 for human vasopressin V1a receptor
Bridge positions count the residues as written; N and C are the ends. Square brackets hold non-standard residues; d marks the D form. Peptide text beside a SMILES is read from it. Ala(2-furyl) = N[C@@H](Cc1ccco1)C(=O)O; Orn(iPr) = CC(C)NCCC[C@H](N)C(=O)O; 3Thi = N[C@@H](Cc1ccsc1)C(=O)O; Orn = NCCC[C@H](N)C(=O)O; Dab = NCC[C@H](N)C(=O)O
Below: a set of entries, each annotated with reported Ratio EC50.

See these solved cases before continuing.
CC[C@H](C)[C@@H]1NC(=O)[C@H](Cc2ccsc2)NC(=O)[C@@H](N)CSSC[C@@H](C(=O)N2CCC[C@H]2C(=O)N[C@@H](CCN)C(=O)NCC(N)=O)NC(=O)[C@H](CC(N)=O)NC(=O)[C@H](CC(N)=O)NC1=O (H-C[3Thi]INNCP[Dab]G-NH2; disulfide 1-6) | > 1300
CC[C@H](C)[C@@H]1NC(=O)[C@H](Cc2ccco2)NC(=O)[C@@H](N)CSSC[C@@H](C(=O)N2CCC[C@H]2C(=O)N[C@@H](CCCNC(C)C)C(=O)NCC(N)=O)NC(=O)[C@H](CC(N)=O)NC(=O)[C@H](CCC(N)=O)NC1=O (H-C[Ala(2-furyl)]IQNCP[Orn(iPr)]G-NH2; disulfide 1-6) | 100

Q: Recorded Ratio EC50 for CC[C@H](C)[C@@H]1NC(=O)[C@H](Cc2ccccc2)NC(=O)[C@@H](N)CSSC[C@@H](C(=O)N2CCC[C@H]2C(=O)N[C@@H](CCCN)C(=O)NCC(N)=O)NC(=O)[C@H](CC(N)=O)NC(=O)[C@H](CC(=O)N(C)C)NC1=O (H-CFID(NMe2)NCP[Orn]G-NH2; disulfide 1-6) , please?
Ans: > 5800

----------
Target: Vasopressin V1a receptor (Rattus norvegicus, UniProt P30560)
Sequence (P30560 whole entry): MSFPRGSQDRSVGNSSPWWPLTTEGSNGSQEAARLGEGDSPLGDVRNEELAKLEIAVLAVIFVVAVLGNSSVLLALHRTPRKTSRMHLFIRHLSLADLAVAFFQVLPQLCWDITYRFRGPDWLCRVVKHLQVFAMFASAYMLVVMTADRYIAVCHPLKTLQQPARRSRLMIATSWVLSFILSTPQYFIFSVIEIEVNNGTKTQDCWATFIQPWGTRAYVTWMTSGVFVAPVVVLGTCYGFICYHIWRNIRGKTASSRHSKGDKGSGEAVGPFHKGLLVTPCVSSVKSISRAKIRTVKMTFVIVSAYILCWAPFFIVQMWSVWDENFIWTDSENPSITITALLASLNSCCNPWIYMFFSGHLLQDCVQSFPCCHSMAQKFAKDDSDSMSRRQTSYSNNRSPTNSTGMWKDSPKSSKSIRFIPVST
Experiment: Agonist activity at recombinant rat vasopressin V1a receptor expressed in HEK293 cells by luciferase reporter gene assay
Type: functional, cell-based
Conditions: read-out: EC50
pEC50: −log10 of the molar value. Numbered stars: 1 amine (or outer) side, 2 acyl side, 3 side chain; on linkers, the order of the positions; unused ones are H or OH. Bridge positions count the residues as written; N and C are the ends. Square brackets hold non-standard residues; d marks the D form. Peptide text beside a SMILES is read from it. * marks the point of attachment. Orn(iPr) = CC(C)NCCC[C@H](N)C(=O)O; X1 = CCNCCC[C@H](N[*:1])C(=O)[*:2]; 2Thi = N[C@@H](Cc1cccs1)C(=O)O; Cha = N[C@@H](CC1CCCCC1)C(=O)O; NH(3-hydroxypropyl) = OCCCN*; Orn = NCCC[C@H](N)C(=O)O; Dab = NCC[C@H](N)C(=O)O
quantity-name: pEC50

CCNCCC[C@H](NC(=O)[C@@H]1CCCN1C(=O)[C@@H]1CSSC[C@H](N)C(=O)N[C@@H](Cc2ccccc2)C(=O)N[C@@H]([C@@H](C)CC)C(=O)N[C@@H](CCC(N)=O)C(=O)N[C@@H](CC(N)=O)C(=O)N1)C(=O)NCC(N)=O (H-CFIQNCP[X1]G-NH2; disulfide 1-6) | 9.80
CC[C@H](C)[C@@H]1NC(=O)[C@H](Cc2ccccc2)NC(=O)[C@@H](N)CSSC[C@@H](C(=O)N2CCC[C@H]2C(=O)N[C@@H](CCN)C(=O)NCC(N)=O)NC(=O)[C@H](CC(N)=O)NC(=O)[C@H](CC(N)=O)NC1=O (H-CFINNCP[Dab]G-NH2; disulfide 1-6) | 8.70
CCNCCC[C@H](NC(=O)[C@@H]1CCCN1C(=O)[C@@H]1CSSC[C@H](N)C(=O)N[C@@H](Cc2ccccc2)C(=O)N[C@@H]([C@@H](C)CC)C(=O)N[C@@H](CC(N)=O)C(=O)N[C@@H](CC(N)=O)C(=O)N1)C(=O)NCC(N)=O (H-CFINNCP[X1]G-NH2; disulfide 1-6) | 8.10
CC[C@H](C)[C@@H]1NC(=O)[C@H](Cc2cccs2)NC(=O)[C@@H](N)CSSC[C@@H](C(=O)N2CCC[C@H]2C(=O)N[C@@H](CCCNC(C)C)C(=O)NCC(N)=O)NC(=O)[C@H](CC(N)=O)NC(=O)[C@H](CCC(N)=O)NC1=O (H-C[2Thi]IQNCP[Orn(iPr)]G-NH2; disulfide 1-6) | 9.49
CC[C@H](C)[C@@H]1NC(=O)[C@H](Cc2ccccc2)NC(=O)[C@@H](N)CSSC[C@@H](C(=O)N2CCC[C@H]2C(=O)N[C@@H](CCCN)C(=O)NCC(N)=O)NC(=O)[C@H](CC(N)=O)NC(=O)[C@H](CC(=O)NCCCO)NC1=O (H-CFID(NH(3-hydroxypropyl))NCP[Orn]G-NH2; disulfide 1-6) | 8.57

a: CC[C@H](C)[C@@H]1NC(=O)[C@H](Cc2ccccc2)NC(=O)[C@@H](N)CSSC[C@@H](C(=O)N2CCC[C@H]2C(=O)N[C@@H](CCCN)C(=O)NCC(N)=O)NC(=O)[C@H](CC(N)=O)NC(=O)[C@H](CC(N)=O)NC1=O (H-CFINNCP[Orn]G-NH2; disulfide 1-6)
b: CC[C@H](C)[C@@H]1NC(=O)[C@H](CC2CCCCC2)NC(=O)[C@@H](N)CSSC[C@@H](C(=O)N2CCC[C@H]2C(=O)N[C@@H](CCN)C(=O)NCC(N)=O)NC(=O)[C@H](CC(N)=O)NC(=O)[C@H](CCC(N)=O)NC1=O (H-C[Cha]IQNCP[Dab]G-NH2; disulfide 1-6)
Q: Just tell me: smaller pEC50 value, a or b ? Select an item and report its label.
Ans: a
